biological target: Phosphatidylinositol 5-phosphate 4-kinase type-2 alpha (Homo sapiens); experiment: qHTS for Inhibitors of phosphatidylinositol 5-phosphate 4-kinase (PI5P4K); settings: PI5P4Kalpha enzyme, ADP-Glo luminescence, 60 min; active compounds read low; also: value at the top dose of about 77 µM; % is scaled to controls: 0 for no effect and ±100 for the full control effect
Hit rate of the full screen: of about 330,000 compounds, about 4,100 (1.2%) were called active. Inconclusive results (about 2%) are left out. Only a selection was taken, and actives are over-represented in it overall.
max response strictly less than -20% = 1.0. Otherwise 0.0.

Problem: Input COc1cccc(/C=N/Nc2ccc(S(=O)(=O)Nc3ccccc3C(=O)O)cc2[N+](=O)[O-])c1O ; condition: max response strictly below -20%. Does it hold?
Result: 1.0

Problem: A record lists Cc1ccc(NS(=O)(=O)c2ccc(N/N=C/c3ccccc3OCC(=O)O)c([N+](=O)[O-])c2)c(C)c1 . Is its max response below -20%?
Result: 0.0

Problem: Does the reported max response of COc1ccc(Br)cc1/C=N/Nc1ccc(S(=O)(=O)Nc2ccccc2C(=O)O)cc1[N+](=O)[O-] stay below -20%?
Result: 0.0

Problem: Decide: max response of Cc1ccc(S(=O)(=O)NCCSc2ccccc2)cc1[N+](=O)[O-] strictly below -20%?
Result: 0.0

Problem: Is it true that max response reported for CC1CCN(c2ccc3c(c2)S(=O)(=O)c2cc(C(=O)O)ccc2C3=O)CC1 is less than -20%?
Result: 1.0

Problem: Regarding COc1ccc(-c2cc3c(c4c2ccn4C)C2CCC3C2)cn1 (stereo not given) , kindly confirm whether its max response is beneath -20%.
Result: 0.0

Problem: Is max response of Cc1cc(Br)cn2c(Cc3ccccc3C(F)(F)F)c(C3CCCCC3)nc12 strictly below -20%?
Result: 0.0

Problem: Please let me know if O=C1c2ccccc2S(=O)(=O)c2cc(N3CCN(c4ccccn4)CC3)ccc21 shows max response below -20%.
Result: 0.0

Problem: Please state whether max response is below -20% for CCS(=O)(=O)c1cc([N+](=O)[O-])c(Sc2ccccc2N)s1
Result: 1.0

Problem: Find out if reported max response for COc1ccc(-c2nc3ccc(Br)cn3c2Cc2ccc(C)cc2)cc1OC is less than -20%
Result: 0.0

---

target: Phosphatidylinositol 5-phosphate 4-kinase type-2 alpha (Homo sapiens) (UniProt P48426); experiment: qHTS for Inhibitors of phosphatidylinositol 5-phosphate 4-kinase (PI5P4K); conditions: PI5P4Kalpha enzyme, ADP-Glo luminescence, 60 min; also: value at the top dose of about 77 µM; % is scaled to controls: 0 for no effect and ±100 for the full control effect
Sequence (P48426 whole entry, looked up): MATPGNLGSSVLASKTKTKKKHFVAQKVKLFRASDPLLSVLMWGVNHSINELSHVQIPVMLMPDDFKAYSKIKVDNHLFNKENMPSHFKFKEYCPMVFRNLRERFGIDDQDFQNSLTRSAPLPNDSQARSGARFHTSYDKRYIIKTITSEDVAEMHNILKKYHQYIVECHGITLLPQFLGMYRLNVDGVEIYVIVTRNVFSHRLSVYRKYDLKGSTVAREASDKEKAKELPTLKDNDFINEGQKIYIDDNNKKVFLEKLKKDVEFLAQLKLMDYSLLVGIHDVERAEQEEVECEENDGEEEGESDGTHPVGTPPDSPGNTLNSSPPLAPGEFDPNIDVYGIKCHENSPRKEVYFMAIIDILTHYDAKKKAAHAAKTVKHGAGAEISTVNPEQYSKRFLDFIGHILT
Hit rate of the full screen: of about 330,000 compounds, about 4,100 (1.2%) were called active. Not shown: some 2% with an inconclusive outcome. Rule for the calls: active = max response of -50% or lower; inconclusive = between -30% and -50%; inactive = -30% or higher. The list comes from a sample in which actives are over-represented; it also holds close analogues and randomly drawn compounds.
Mark one answer only. Choices: active, inactive

Problem: Recorded call for Cc1cc(=O)n2[nH]c(-c3sccc3-n3c(C)ccc3C)cc2n1 ?
Result: active

Problem: Record lookup: outcome of this test for CC(C)(C)c1nnc2sc(SCC(O)=C(C#N)c3nc4ccccc4[nH]3)nn2c1=O ?
Result: active

Problem: Kindly provide the recorded test outcome for the following molecule: COc1ccc([C@H]2CC(=O)C[C@@H](CCn3cc(CC4CCCC4)nn3)O2)cc1
Result: inactive

Problem: Which outcome was assigned to C[C@H]1CN([C@@H](C)CO)C(=O)CCCn2nncc2CO[C@@H]1CN(C)S(=O)(=O)c1cccc(C#N)c1 in this test?
Result: inactive

Problem: Field: outcome | Entry: CC(=O)c1nn(-c2ccccc2)c(=Nc2ccccc2)cc1C
Result: inactive

Problem: Call for entry O=C(c1ccccc1)N1CCN(c2cc(-c3ccccc3)nc3cc(-c4cccc(Cl)c4)nn23)CC1 :
Result: inactive

Problem: Test call for this molecule, please: CC1Cc2[nH][nH]c(=O)c2C(C2CC2)O1 (stereo not given)
Result: inactive

Problem: // outcome(item) with item = CCCCc1c(-c2ccc(Cl)cc2)ncn1CCc1ccccc1OC
Result: inactive

Problem: Please indicate how the test categorized CCCCCNC(=O)C1C(=O)Nc2ccccc2C(=O)N1C(C)(C)C (stereo not given) .
Result: inactive

Problem: Please state the recorded outcome for this molecule: CCC(=O)N1CCC(C)(C(=O)Nc2cc(OC)c(OC)c(OC)c2)C1 (stereo not given)
Result: inactive
